folding stability dG listing for selected variants.
B1: EEHEE_rd3_1049 (parent)
chain: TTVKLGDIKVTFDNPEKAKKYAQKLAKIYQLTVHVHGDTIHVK

Variants of: B1
Test: folding stability dG (cDNA display proteolysis); higher = more stable
Conditions: PBS, room temperature
Report as a plain number; the unit kcal/mol is understood.

// worked examples, folding stability dG included
D7P : 2.31
T2I : 2.23
K9G : 1.25
P15V : 1.96

Lab note: measured folding stability dG of "K4C" was 3.22
